Tested on: EMC-BAC-2
test: relative viability (nuclei count vs DMSO), 5 days (fraction); higher = more cells survive
measurement parameters: first compound 0.8 µM
attribute measured: relative viability
Respond with the number and no other words.

Use these answered entries as a reference point.
- compound: "O=c1[nH]c2ccccc2n1C1CCN(CCCC(c2ccc(F)cc2)c2ccc(F)cc2)CC1 [Pimozide] + COc1cccc2cc(-c3nc([C@H]4CC[C@H](C(=O)O)CC4)n4ncnc(N)c34)[nH]c12 [OSI-027] (partner 0.5 µM)"
  relative viability: 0.342
- compound: "O=c1[nH]c2ccccc2n1C1CCN(CCCC(c2ccc(F)cc2)c2ccc(F)cc2)CC1 [Pimozide] + Nc1ncn([C@H]2C[C@H](O)[C@@H](CO)O2)c(=O)n1 [Decitabine] (partner 2 µM)"
  relative viability: 0.911
- compound: "O=c1[nH]c2ccccc2n1C1CCN(CCCC(c2ccc(F)cc2)c2ccc(F)cc2)CC1 [Pimozide] + CC(=O)Nc1cccc(-n2c(=O)n(C3CC3)c(=O)c3c(Nc4ccc(I)cc4F)n(C)c(=O)c(C)c32)c1 [Trametinib] (partner 0.02 µM)"
  relative viability: 0.792
- compound: "Cc1cnc(-c2cnc(NCCNc3ccc(C#N)cn3)nc2-c2ccc(Cl)cc2Cl)[nH]1 + Cc1nc(Nc2ncc(C(=O)Nc3c(C)cccc3Cl)s2)cc(N2CCN(CCO)CC2)n1 [Dasatinib] (partner 0.075 µM)"
  relative viability: 0.317

Which value of relative viability has been reported for Cc1cnc(-c2cnc(NCCNc3ccc(C#N)cn3)nc2-c2ccc(Cl)cc2Cl)[nH]1 + O=C(CCCCCCC(=O)Nc1ccccc1)NO [Vorinostat] (partner 1 µM) in the records?
0.373
